For each entry below, report its EC50 value.
- TESTED ON: glucagon receptor (UniProt P47871 26-477, limits assumed)
- Sequence (P47871 26-477 limits assumed): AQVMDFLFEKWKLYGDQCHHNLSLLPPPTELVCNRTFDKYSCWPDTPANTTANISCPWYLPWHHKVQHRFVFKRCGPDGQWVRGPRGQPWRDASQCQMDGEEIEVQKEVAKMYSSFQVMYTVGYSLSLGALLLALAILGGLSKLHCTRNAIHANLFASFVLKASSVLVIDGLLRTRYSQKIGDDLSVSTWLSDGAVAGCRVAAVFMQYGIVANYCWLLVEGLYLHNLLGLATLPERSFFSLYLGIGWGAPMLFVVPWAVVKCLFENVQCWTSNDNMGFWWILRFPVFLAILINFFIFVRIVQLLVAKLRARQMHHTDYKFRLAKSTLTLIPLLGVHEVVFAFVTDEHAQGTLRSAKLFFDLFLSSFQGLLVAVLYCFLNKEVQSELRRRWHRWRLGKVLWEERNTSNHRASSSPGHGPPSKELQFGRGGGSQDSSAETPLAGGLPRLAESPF
- ASSAY DETAILS: cell-based or functional assay
Where no end group is shown, it is not given here. [ ]: non-standard residue; d: D form. The star is where a group is joined. C18 fatty acyl = 18 carbon fatty acyl group covalently attached to Lys; PEG 40 kDa = PEG (40 kDa) covalently attached to Cys; Myristoyl = CCCCCCCCCCCCCC(=O)*; Aib = CC(C)(N)C(=O)O
Give bare numbers, in nM.

// solved cases for EC50 follow
Y[Aib]EGTFTSDYSIYLDKQAA[Aib]EFVNWLLAGGPSSGAPPPSK(Myristoyl)-NH2 [mt-260] ... 0.321
Y[Aib]EGTFTSDYSIYLDKQAA[Aib]EFVC(PEG 40 kDa)WLLAGGPSSGAPPPSK-NH2 (also: PEG linkage structure not given here) [mt-331] ... 408
Y[Aib]EGTFTSDYSIYLDKQAA[Aib]EFVC(PEG 40 kDa)WLLAGGPSSGAPPPSK(C18 fatty acyl)-NH2 [mt-310] ... 0.775
Y[Aib]EGTFTSDYSIYLDKQAA[Aib]EFVNWLLAGGPSSGAPPPSKC-NH2 [mt-340] ... 10.5
Y[Aib]EGTFTSDYSIYLDKQAA[Aib]EFVC(PEG 40 kDa)WLLAGGPSSGAPPPSK(Myristoyl)-NH2 [mt-309] ... 3.61

Next, consider the following binder.
Recorded result, Y[Aib]EGTFTSDYSIYLDKQAA[Aib]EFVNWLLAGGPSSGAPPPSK(Myristoyl)C-NH2 [mt-339] , EC50: 8.72
